molecular target: DCN1 (DCUND1) protein PONY domain (Homo sapiens (Human)); experiment: TR-FRET assay (binding to DCN-1, displacement of FAM-labeled probe); details: 24 hr after treatment with compound; read-out: TR FRET IC50 24 hr
Sequence (Q96GG9 60-248): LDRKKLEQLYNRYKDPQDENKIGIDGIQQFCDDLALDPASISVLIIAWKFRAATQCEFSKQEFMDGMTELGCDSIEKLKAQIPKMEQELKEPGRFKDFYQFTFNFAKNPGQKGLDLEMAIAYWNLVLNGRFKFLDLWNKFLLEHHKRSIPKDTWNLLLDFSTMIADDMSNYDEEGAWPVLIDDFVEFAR
pIC50: −log10 of the molar value.
MEASURED_PARAMETER: pIC50

Some solved cases for reference:
CCN1C(=O)[C@@H](NC(=O)c2cccc(C(F)(F)F)c2)[C@H](c2cccc(CN(C)C/C=C/C(=O)N3CCCC3)c2)c2cnn(-c3ccccc3)c21 [Compound I-255]; 5.52 to 6.00
C=C(C(=O)N(C)Cc1cccc([C@@H]2c3cnn(-c4ccccc4)c3N(CC)C(=O)[C@H]2NC(=O)c2ccn(C3CC3)n2)c1)C(C)N1CC2CC(C1)O2 (stereo partly drawn) [Compound I-286]; ≥ 6.70
C/C=C(\CN1CCN(C2COC2)CC1)C(=O)Nc1cccc([C@@H]2c3cnn(-c4ccccc4)c3N(CC)C(=O)[C@H]2NC(=O)c2ccn(C3CC3)n2)c1 [Compound I-233]; ≥ 6.70
C/C=C(\CN1CCOCC1)C(=O)NCc1cccc([C@@H]2c3cnn(-c4ccccc4)c3N(CC)C(=O)[C@H]2NC(=O)c2ccn(C3CC3)n2)c1 [Compound I-241]; ≥ 6.70
CCN1C(=O)[C@H](NC(=O)c2cccc(C(F)(F)F)c2)[C@@H](c2cccc(NC(=O)C3=CCC3)c2)c2c(C)nn(-c3ccccc3)c21 [Compound I-94]; 5.52 to 6.00
C=C(CN1CCOCC1)C(=O)Nc1cccc([C@H]2c3c(C)nn(-c4ccccc4)c3N(CC)C(=O)[C@@H]2NC(=O)c2ccn(C(F)(F)F)n2)c1 (racemic) [Compound I-65]; ≥ 6.70

Problem: Any idea what pIC50 was measured for CCN1C(=O)[C@H](NC(=O)c2cccc(C(F)(F)F)c2)[C@@H](c2cccc(CNC(=O)C3=C(C(=O)OC)CC3)c2)c2cnn(-c3ccccc3)c21 [Compound I-118] ?
Solution: 5.52 to 6.00

Problem: Here is the next molecule: C=C(CN1CCOCC1)C(=O)NCc1cccc([C@@H]2c3cnn(-c4ccccc4)c3N(CC)C(=O)[C@H]2NC(=O)c2ccnn2C(F)(F)F)c1 [Compound I-86]
Solution: 5.52 to 6.00

Problem: Here is the next molecule: C=C(CN(C)CC1COC1)C(=O)NCc1cccc([C@@H]2c3cnn(-c4ccccc4)c3N(CC)C(=O)[C@H]2NC(=O)c2cccc(C(F)(F)F)c2)c1 [Compound I-61]
Solution: ≥ 6.70

Problem: Here is the next molecule: C=CC(=O)NCc1ccccc1[C@@H]1c2cnn(-c3ccccc3)c2N(CC)C(=O)[C@H]1NC(=O)c1cccc(C(F)(F)F)c1 (racemic) [Compound I-113]
Solution: 5.52 to 6.00

Problem: Here is the next molecule: CC#CC(=O)Nc1ccccc1[C@H]1c2cnn(-c3ccccc3)c2N(CC)C(=O)[C@@H]1NC(=O)c1cccc(C(F)(F)F)c1 (racemic) [Compound I-159]
Solution: < 5.52
